# testTarget: human D1 (Homo sapiens, UniProt P21728)
# Sequence (P21728 whole entry): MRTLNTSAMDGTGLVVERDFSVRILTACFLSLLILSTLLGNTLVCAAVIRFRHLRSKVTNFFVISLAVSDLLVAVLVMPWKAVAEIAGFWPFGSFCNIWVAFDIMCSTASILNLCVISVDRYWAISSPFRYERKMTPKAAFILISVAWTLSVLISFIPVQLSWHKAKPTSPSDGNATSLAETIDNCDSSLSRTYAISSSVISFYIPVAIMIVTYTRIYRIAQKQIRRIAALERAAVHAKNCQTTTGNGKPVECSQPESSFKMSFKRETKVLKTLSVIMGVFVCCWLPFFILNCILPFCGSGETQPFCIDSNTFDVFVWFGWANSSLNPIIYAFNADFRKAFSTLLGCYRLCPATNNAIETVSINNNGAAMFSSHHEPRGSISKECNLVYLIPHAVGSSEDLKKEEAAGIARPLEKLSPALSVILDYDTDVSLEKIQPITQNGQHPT
# runDescription: D1R GS-mediated GS-cAMP accumulation assay
valueType: EC50 (nM)
Give bare numbers, in nM.

*Q* For the compound shown here, `Cc1cc(Oc2nccc3occc23)ccc1-c1c(C)cnnc1C` , give the reported EC50.
*A* 1
